molecular target: IP receptor (Homo sapiens, UniProt P43119); construct: one million cells in 160 μl aliquot of cell suspension were put in a well of 96 well plate; assay: IP receptor binding/cAMP in HEL cells ([3H]-iloprost binding, Assay 1; iloprost-induced cAMP production, Assay 2); details: compounds of about 40 to 90% purity, read-out: In vitro activity grade (IC50 class)
Sequence (P43119 whole entry): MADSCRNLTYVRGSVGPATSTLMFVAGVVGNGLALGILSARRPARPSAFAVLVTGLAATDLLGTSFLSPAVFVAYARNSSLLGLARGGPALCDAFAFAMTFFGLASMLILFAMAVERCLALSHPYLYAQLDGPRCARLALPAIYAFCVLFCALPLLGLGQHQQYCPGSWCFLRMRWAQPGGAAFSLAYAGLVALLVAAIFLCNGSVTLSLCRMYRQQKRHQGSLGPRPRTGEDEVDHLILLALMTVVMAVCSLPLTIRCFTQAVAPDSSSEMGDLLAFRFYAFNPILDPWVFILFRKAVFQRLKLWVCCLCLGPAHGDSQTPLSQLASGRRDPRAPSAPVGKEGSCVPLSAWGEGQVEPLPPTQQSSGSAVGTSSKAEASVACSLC

compound: O=C(O)[C@@H](Cc1ccccc1)Nc1cc(-c2ccc(OCC3CC3)cc2)ncn1
IC50: < 100 nM
//
compound: O=C(O)C(Cc1ccccn1)Nc1ncnc(-c2ccc(OCc3ccccc3)cc2)c1F (centres unmarked)
IC50: < 100 nM
//
compound: CCCCC(Nc1cc(-c2ccc(OCc3ccccc3)cc2)ncn1)C(=O)O (centres unmarked)
IC50: < 100 nM
//
compound: O=C(O)C(Cc1ccccc1)Nc1cc(-c2cccc(OCc3ccccc3)c2)ncn1 (centres unmarked)
IC50: > 1000 nM
//
compound: CS(=O)(=O)CCC(Nc1cc(-c2ccc(OCc3ccccc3)cc2)ncn1)C(=O)O (centres unmarked)
IC50: 100 to 1000 nM
//
compound: C=CCC(Nc1cc(-c2ccc(OCc3ccccc3)cc2)ncn1)C(=O)O (centres unmarked)
IC50: < 100 nM
//
compound: O=C(O)C(Cc1cccnc1)Nc1cc(-c2ccc(OCc3ccccc3)cc2)ncn1 (centres unmarked)
IC50: < 100 nM
//
compound: COCCOc1ccc(-c2cc(NC(Cc3ccccc3)C(=O)O)ncn2)cc1 (centres unmarked)
IC50: < 100 nM
//
compound: O=C(O)C(Cc1ccccc1)Nc1cc(-c2ccc(Oc3cc(C(F)(F)F)ncn3)cc2)ncn1 (centres unmarked)
IC50: 100 to 1000 nM
//
compound: CSc1ccc(-c2ccc(-c3cc(NC(Cc4ccccc4)C(=O)O)ncn3)cc2)cc1 (centres unmarked)
IC50: < 100 nM
//
compound: O=C(O)C(Cc1ccccc1)Nc1cc(-c2ccc(OCCc3ccccn3)cc2)ncn1 (centres unmarked)
IC50: < 100 nM
//
compound: O=C(O)C(Cc1ccccc1)Nc1cc(-c2ccccc2)ncn1 (centres unmarked)
IC50: 100 to 1000 nM
//
compound: CCCCC(Nc1cc(-c2ccc(OCc3cc(F)cc(F)c3)cc2)ncn1)C(=O)O (centres unmarked)
IC50: < 100 nM
//
compound: O=C(NO)C(Cc1ccccc1)Nc1cc(-c2ccc(OCc3ccccc3)cc2)ncn1 (centres unmarked)
IC50: < 100 nM
//
compound: CCCCC(Nc1cc(-c2ccc(OCCc3ccccc3)cc2)ncn1)C(=O)O (centres unmarked)
IC50: < 100 nM
//
compound: O=C(O)C(Cc1cccc(O)c1)Nc1cc(-c2ccc(OCc3ccccc3)cc2)ncn1 (centres unmarked)
IC50: < 100 nM
//
compound: O=C(O)C(Cc1ccccc1)Nc1cc(-c2ccc(-c3cccc([N+](=O)[O-])c3)cc2)ncn1 (centres unmarked)
IC50: < 100 nM

* * *

molecular target: IP receptor (Homo sapiens); construct: one million cells in 160 μl aliquot of cell suspension were put in a well of 96 well plate; experiment: IP receptor binding/cAMP in HEL cells ([3H]-iloprost binding, Assay 1; iloprost-induced cAMP production, Assay 2); conditions: compounds of about 40 to 90% purity, read-out: In vitro activity grade (IC50 class)
pIC50: −log10 of the molar value.
metric-name: pIC50

molecule: O=C(O)[C@H](Cc1ccccc1)Nc1cc(-c2ccc(NCC3CC3)cc2)ncn1
metric-name: pIC50
result: 6.00 to 7.00

molecule: CCCCC(Nc1cc(-c2ccc(OCc3cc(OC)cc(OC)c3)cc2)ncn1)C(=O)O (centres unmarked)
metric-name: pIC50
result: > 7.00

molecule: Nc1nc(NC(Cc2ccccc2)C(=O)O)cc(-c2ccc(OCc3ccccc3)cc2)n1 (centres unmarked)
metric-name: pIC50
result: > 7.00

molecule: CC(Cc1ccccc1)(Nc1cc(-c2ccc(OCc3ccccc3)cc2)ncn1)C(=O)O (centres unmarked)
metric-name: pIC50
result: > 7.00

molecule: CCCCC(Nc1cc(-c2ccc(OCc3ccccc3F)cc2)ncn1)C(=O)O (centres unmarked)
metric-name: pIC50
result: > 7.00

molecule: O=C(O)C(Cc1ccccc1)Nc1cc(-c2ccc(Oc3ccc4ccccc4n3)cc2)ncn1 (centres unmarked)
metric-name: pIC50
result: 6.00 to 7.00

molecule: c1ccc(COc2ccc(-c3cc(NC(Cc4ccccn4)c4nnn[nH]4)ncn3)cc2)cc1 (centres unmarked)
metric-name: pIC50
result: 6.00 to 7.00

molecule: CC(Cc1cccc(O)c1)(Nc1cc(-c2ccc(OCc3ccccc3)cc2)ncn1)C(=O)O (centres unmarked)
metric-name: pIC50
result: < 6.00
